- System: Escherichia coli
- Type: cell-based
Numbered stars: 1 amine (or outer) side, 2 acyl side, 3 side chain; on linkers, the order of the positions; unused ones are H or OH. Bridge positions count the residues as written; N and C are the ends. Square brackets hold non-standard residues; d marks the D form. Peptide text beside a SMILES is read from it. * marks the point of attachment. ξ: configuration not given here. X12 = O=C([C@@H](Cc1ccc(C2CCCCC2)cc1)N[*:1])[*:2]; Gly(octyl) = CCCCCCCC[C@H](N)C(=O)O; Thr(3ξ) = CC(O)[C@H](N)C(=O)O; Octanoyl = CCCCCCCC(=O)*; Dab = NCC[C@H](N)C(=O)O; Dap = NC[C@H](N)C(=O)O; X2 = CC(C)CC(CN)C(=O)*
Reported MIC E. coli 058 values follow for various compounds
Entry rule: numbers only, all in µg/mL.

// MIC E. coli 058 value for CCCCCCCC[C@@H]1NC(=O)[C@@H](Cc2ccccc2)NC(=O)[C@H](CCN)NC(=O)[C@@H](NC(=O)[C@H](CCN)NC(=O)[C@@H](NC(=O)[C@H](CCN)NC(=O)CCCCCCC)[C@@H](C)O)CCNC(=O)[C@H]([C@@H](C)O)NC(=O)[C@H](CCN)NC(=O)[C@H](CCN)NC1=O [Example C7, reference compound] (Octanoyl-[Dab]T[Dab][Dab][Dab][dF][Gly(octyl)][Dab][Dab]T; lactam 4-C) : 2

// MIC E. coli 058 value for CC(C)C[C@@H]1NC(=O)[C@@H](CC2CCCCC2)NC(=O)[C@H](CCN)NC(=O)[C@@H](NC(=O)[C@H](CN)NC(=O)[C@@H](NC(=O)CCC(N)c2ccccc2)[C@@H](C)O)CCNC(=O)[C@H]([C@@H](C)O)NC(=O)[C@H](CCN)NC(=O)[C@H](CCN)NC1=O (single isomer, unassigned; isomer 2) [Example 61] : 8

// MIC E. coli 058 value for CC(C)CC(CN)C(=O)N[C@H](C(=O)N[C@@H](CN)C(=O)N[C@H]1CCNC(=O)[C@H]([C@@H](C)O)NC(=O)[C@H](CCN)NC(=O)[C@H](CCN)NC(=O)[C@H](CC(C)C)NC(=O)[C@@H](Cc2ccc(-c3ccccc3)cc2)NC(=O)[C@H](CCN)NC1=O)C(C)O (single isomer, unassigned; isomer 2) [Example 16] : 4

// MIC E. coli 058 value for CC(C)CC(CN)C(=O)N[C@H](C(=O)N[C@@H](CN)C(=O)N[C@H]1CCNC(=O)[C@H]([C@@H](C)O)NC(=O)[C@H](CCN)NC(=O)[C@H](CCN)NC(=O)[C@H](CC(C)C)NC(=O)[C@@H](Cc2ccc(C3CCCCC3)cc2)NC(=O)[C@H](CCN)NC1=O)C(C)O (stereo partly drawn) [Example 27] (X2-[Thr(3ξ)][Dap][Dab][Dab][X12]L[Dab][Dab]T; lactam 3-C) : 2

// MIC E. coli 058 value for CC(C)C[C@@H]1NC(=O)[C@@H](CC2CCCCC2)NC(=O)[C@H](CCN)NC(=O)[C@@H](NC(=O)[C@H](CN)NC(=O)[C@@H](NC(=O)CC(CN)c2ccc(Cl)cc2)C(C)O)CCNC(=O)[C@H]([C@@H](C)O)NC(=O)[C@H](CCN)NC(=O)[C@H](CCN)NC1=O (single isomer, unassigned; isomer 2) [Example 51] : 2

// MIC E. coli 058 value for CCC(CC)CC(CCN)C(=O)N[C@H](C(=O)N[C@@H](CCN)C(=O)N[C@H]1CCNC(=O)[C@H]([C@@H](C)O)NC(=O)[C@H](CCN)NC(=O)[C@H](CCN)NC(=O)[C@H](CC(C)C)NC(=O)[C@@H](CC2CCCCC2)NC(=O)[C@H](CCN)NC1=O)[C@@H](C)O (single isomer, unassigned; isomer 2) : 4
